target: Nuclear factor erythroid 2-related factor 2 (Homo sapiens, UniProt Q16236)
Sequence (Q16236 whole entry): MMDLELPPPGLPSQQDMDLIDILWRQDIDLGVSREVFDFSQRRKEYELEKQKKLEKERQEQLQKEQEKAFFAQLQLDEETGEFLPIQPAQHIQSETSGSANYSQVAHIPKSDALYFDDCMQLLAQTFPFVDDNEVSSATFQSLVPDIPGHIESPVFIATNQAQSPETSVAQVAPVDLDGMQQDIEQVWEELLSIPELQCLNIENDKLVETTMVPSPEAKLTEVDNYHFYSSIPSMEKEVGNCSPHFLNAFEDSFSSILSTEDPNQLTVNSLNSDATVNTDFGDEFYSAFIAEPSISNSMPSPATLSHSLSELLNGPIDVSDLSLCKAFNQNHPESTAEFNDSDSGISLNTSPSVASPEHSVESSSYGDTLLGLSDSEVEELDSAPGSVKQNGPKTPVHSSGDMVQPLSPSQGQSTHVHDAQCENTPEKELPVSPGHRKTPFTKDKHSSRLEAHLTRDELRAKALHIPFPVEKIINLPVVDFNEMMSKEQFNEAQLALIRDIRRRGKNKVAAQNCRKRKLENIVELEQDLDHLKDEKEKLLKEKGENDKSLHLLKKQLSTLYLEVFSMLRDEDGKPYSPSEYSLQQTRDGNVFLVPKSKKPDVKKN
test_details: Activation of Nrf2 (unknown origin) expressed in human HepG2 cells after 5 hrs by ARE-driven luciferase reporter gene assay
Reported EC50 values are given for each entry in this list.
readout_label: EC50 (µM)

> print(dat)
                                smiles.data  inequality.operator  experimental.value
 1                  COc1ccccc1/C=C/c1ccccc1                    =                 4.4
 2                 Fc1cccc(/C=C/c2ccccc2)c1                    =                 3.1
 3           COc1cccc(/C=C/c2cccc(F)c2)c1OC                    =                 1.9
 4          COc1ccc(/C=C/c2ccc(F)c(F)c2)cc1                    >                  15
 5         COc1ccc(/C=C/c2ccc(O)c(OC)c2)cc1                    =                 3.7
 6             Fc1ccc(/C=C/c2ccccc2F)c(F)c1                    =                 9.6
 7           COc1cccc(/C=C/c2ccc(F)cc2)c1OC                    =                 2.9
 8                Fc1ccc(/C=C/c2ccccc2F)cc1                    =                 3.6
 9              Fc1cccc(/C=C/c2cccc(F)c2)c1                    =                   1
10             COc1cccc(/C=C/c2cccc(F)c2)c1                    =                 2.3
11                Fc1cccc(F)c1/C=C/c1ccccc1                    =                 6.9
12               COc1ccc(/C=C/c2ccccc2F)cc1                    =                 5.4
13  COc1ccc(/C=C/c2cccc([N+](=O)[O-])c2)cc1                    =                 3.3
